Target: HiBit-BRM fusion protein (Homo sapiens)
Construct: expressed in transfected cells
Sequence (P51531 whole entry, the tested form may be a part): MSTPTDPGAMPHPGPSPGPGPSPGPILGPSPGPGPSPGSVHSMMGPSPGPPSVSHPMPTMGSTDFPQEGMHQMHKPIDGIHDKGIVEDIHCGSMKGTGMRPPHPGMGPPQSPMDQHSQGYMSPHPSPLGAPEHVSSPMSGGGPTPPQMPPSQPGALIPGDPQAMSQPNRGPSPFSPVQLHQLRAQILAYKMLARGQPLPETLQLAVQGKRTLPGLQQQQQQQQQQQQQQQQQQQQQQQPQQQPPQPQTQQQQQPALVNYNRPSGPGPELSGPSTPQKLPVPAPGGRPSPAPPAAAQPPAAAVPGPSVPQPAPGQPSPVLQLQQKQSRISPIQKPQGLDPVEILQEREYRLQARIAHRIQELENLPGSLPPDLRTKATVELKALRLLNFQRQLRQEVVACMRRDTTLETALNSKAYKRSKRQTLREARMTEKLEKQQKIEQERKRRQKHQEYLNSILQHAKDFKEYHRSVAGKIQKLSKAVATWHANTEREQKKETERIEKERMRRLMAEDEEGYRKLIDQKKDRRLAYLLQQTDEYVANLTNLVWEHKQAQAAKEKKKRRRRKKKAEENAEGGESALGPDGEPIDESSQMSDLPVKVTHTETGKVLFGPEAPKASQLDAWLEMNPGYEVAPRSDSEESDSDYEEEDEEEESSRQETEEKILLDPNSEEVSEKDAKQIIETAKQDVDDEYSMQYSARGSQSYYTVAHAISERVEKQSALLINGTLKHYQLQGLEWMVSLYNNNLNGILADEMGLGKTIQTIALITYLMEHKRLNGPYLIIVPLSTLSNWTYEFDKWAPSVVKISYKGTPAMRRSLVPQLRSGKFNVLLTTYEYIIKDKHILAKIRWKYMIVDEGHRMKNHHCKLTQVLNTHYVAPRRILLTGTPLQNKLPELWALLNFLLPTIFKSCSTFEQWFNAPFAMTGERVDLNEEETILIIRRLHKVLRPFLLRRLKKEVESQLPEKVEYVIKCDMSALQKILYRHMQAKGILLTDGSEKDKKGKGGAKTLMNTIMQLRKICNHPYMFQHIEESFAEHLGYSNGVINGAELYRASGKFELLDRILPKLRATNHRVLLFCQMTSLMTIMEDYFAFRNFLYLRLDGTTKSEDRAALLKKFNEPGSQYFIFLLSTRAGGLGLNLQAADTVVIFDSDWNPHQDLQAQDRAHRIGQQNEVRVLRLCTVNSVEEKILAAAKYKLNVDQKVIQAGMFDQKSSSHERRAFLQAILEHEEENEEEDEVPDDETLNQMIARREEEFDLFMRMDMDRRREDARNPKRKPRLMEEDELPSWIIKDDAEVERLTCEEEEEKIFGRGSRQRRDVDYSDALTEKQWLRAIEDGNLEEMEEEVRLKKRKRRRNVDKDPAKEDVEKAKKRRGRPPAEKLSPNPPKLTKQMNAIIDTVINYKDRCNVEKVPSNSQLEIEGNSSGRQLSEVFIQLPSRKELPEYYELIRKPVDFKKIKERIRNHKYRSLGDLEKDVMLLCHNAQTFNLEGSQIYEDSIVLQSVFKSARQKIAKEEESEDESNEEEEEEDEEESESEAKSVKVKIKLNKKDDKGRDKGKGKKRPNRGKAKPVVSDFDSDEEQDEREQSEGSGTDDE
Assay: HiBiT-BRM cell-based degradation assay (Nano-Glo HiBiT Lytic Detection)
Details: stable HeLa cell line expressing HiBiT-BRM, 24 h incubation; read-out: BRM HiBit Degradation IC50
Procedure: Procedure: A stable HeLa cell line expressing HiBiT-BRM was generated. On day 0, 5000 cells were seeded in 40 μL of media into each well of 384-well cell culture plates. […] The plates were shaken for 10 minutes at room temperature and the bioluminescence read using an EnVision plate reader (PerkinElmer). The degradation % was calculated using the following formula: % degradation=100%−100%×(LumSample−LumLC)/(LumHC−LumLC). […]
Below, each entry is listed with its recorded DC50.

Cc1ncsc1-c1ccc(CNC(=O)[C@@H]2C[C@@H](O)CN2C(=O)[C@@H](NC(=O)CCC(=O)N2CCC(c3cc4cc(-c5ccccc5O)nnc4s3)CC2)C(C)(C)C)cc1 [Compound 27] : ≥ 1000 nM
Cc1ncsc1-c1ccc([C@H](C)NC(=O)[C@@H]2C[C@@H](O)CN2C(=O)[C@@H](c2cc(OCCCN3CCC(c4sc5nnc(-c6ccccc6O)cc5c4C)CC3)no2)C(C)C)cc1 [Compound 95] : < 10 nM
Cc1ncsc1-c1ccc([C@H](C)NC(=O)[C@@H]2C[C@@H](O)CN2C(=O)[C@@H](c2cc(C3CCN(C(=O)CN4CC(c5cc6cc(-c7ccccc7O)nnc6s5)C4)CC3)no2)C(C)C)cc1 [Compound 13] : ≥ 100 nM
Cc1ncsc1-c1ccc([C@H](C)NC(=O)[C@@H]2C[C@@H](O)CN2C(=O)[C@@H](c2cc([C@H]3CC[C@@H](N4CCC(c5sc6nnc(-c7ccccc7O)cc6c5C)CC4)CC3)no2)C(C)C)cc1 [Compound 37] : < 10 nM

Attention now shifts to the item below.
// DC50 value for Cc1ncsc1-c1ccc([C@H](C)NC(=O)[C@@H]2C[C@@H](O)CN2C(=O)[C@@H](c2cc(OCCN3C[C@H]4C[C@@H](C3)[C@@H]4c3sc4nnc(-c5ccccc5O)cc4c3C)no2)C(C)C)cc1 [Compound 63] : ≥ 10 nM

---

Target: HiBit-BRG1 fusion protein (Homo sapiens, UniProt P51532)
Construct: expressed in transfected cells
Sequence (P51532 whole entry, the tested form may be a part): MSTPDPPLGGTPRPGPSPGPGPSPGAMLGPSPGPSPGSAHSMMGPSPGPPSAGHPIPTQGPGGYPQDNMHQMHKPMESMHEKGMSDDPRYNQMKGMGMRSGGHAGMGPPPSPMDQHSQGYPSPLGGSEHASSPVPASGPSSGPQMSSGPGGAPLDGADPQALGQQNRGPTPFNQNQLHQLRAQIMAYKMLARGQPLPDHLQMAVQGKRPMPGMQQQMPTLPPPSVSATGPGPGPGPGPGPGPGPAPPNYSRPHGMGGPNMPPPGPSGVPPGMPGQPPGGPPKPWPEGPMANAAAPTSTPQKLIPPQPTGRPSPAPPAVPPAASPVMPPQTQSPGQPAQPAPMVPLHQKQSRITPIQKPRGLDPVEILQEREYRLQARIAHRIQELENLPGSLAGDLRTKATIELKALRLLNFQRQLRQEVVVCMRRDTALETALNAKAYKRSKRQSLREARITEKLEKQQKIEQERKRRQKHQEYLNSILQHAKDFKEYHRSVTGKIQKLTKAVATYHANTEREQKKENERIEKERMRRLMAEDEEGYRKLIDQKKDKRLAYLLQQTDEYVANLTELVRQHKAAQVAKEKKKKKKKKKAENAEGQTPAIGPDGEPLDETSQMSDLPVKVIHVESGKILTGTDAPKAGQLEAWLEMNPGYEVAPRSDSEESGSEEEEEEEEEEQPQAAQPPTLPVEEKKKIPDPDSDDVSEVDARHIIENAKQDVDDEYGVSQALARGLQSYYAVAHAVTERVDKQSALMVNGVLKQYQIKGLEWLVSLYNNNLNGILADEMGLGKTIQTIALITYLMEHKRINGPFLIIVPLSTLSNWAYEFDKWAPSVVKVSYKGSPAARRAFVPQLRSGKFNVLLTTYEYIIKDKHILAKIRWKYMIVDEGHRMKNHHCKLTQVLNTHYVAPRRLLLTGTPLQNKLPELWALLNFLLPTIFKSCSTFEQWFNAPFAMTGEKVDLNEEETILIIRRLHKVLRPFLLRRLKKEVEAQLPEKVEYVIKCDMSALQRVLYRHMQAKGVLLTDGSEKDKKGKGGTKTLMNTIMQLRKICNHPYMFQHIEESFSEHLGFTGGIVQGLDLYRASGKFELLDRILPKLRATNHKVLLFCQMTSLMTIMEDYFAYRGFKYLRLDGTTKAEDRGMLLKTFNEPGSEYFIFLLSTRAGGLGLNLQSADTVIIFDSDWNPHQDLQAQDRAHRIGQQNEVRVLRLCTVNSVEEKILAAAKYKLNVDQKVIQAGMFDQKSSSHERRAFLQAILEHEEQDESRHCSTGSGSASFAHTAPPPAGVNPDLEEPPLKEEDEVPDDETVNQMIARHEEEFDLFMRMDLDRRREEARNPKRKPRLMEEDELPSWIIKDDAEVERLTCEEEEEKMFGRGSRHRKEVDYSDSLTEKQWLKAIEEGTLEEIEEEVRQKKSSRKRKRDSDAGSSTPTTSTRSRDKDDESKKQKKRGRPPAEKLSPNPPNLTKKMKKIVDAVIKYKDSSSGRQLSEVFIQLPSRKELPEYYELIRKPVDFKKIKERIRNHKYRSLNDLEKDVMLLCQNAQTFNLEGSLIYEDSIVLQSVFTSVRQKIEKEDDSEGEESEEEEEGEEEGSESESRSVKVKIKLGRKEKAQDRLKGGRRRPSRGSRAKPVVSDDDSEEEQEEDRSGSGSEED
Test: HiBiT-BRG1 cell-based degradation assay (Nano-Glo HiBiT Lytic Detection)
Conditions: stable HeLa cell line expressing HiBit-BRG1 and LgBit, 24 h incubation; read-out: BRMG1 HiBit Degradation IC50
Below, each entry is listed with its recorded DC50.

Sample records with DC50:
Cc1ncsc1-c1ccc([C@H](C)NC(=O)[C@@H]2C[C@@H](O)CN2C(=O)[C@@H](c2cc(C34CC(C(=O)N5CCC(c6sc7nnc(-c8ccccc8O)cc7c6C)CC5)(C3)C4)no2)C(C)C)cc1 [Compound 64] : < 0.01 µM
Cc1ncsc1-c1ccc([C@H](C)NC(=O)[C@@H]2C[C@@H](O)CN2C(=O)[C@@H](c2cc(N3CCN(C(=O)[C@@H]4CCc5sc6nnc(-c7ccccc7O)cc6c5C4)CC3)no2)C(C)C)cc1 (single isomer, unassigned) [Compound 53] : ≥ 1 µM
Cc1ncsc1-c1ccc([C@H](C)NC(=O)[C@@H]2C[C@@H](O)CN2C(=O)[C@@H](c2cc(OCCN3CCC(N4CC(c5sc6nnc(-c7ccccc7O)cc6c5C)C4)CC3)no2)C(C)C)cc1 [Compound 100] : ≥ 1 µM
Cc1ncsc1-c1ccc([C@H](C)NC(=O)[C@@H]2C[C@@H](O)CN2C(=O)[C@@H](c2cc(OCCN3CC4(CC(c5sc6nnc(-c7ccccc7O)cc6c5C)C4)C3)no2)C(C)C)cc1 [Compound 88] : ≥ 1 µM
Cc1ncsc1-c1ccc(CNC(=O)[C@@H]2C[C@@H](O)CN2C(=O)[C@@H](NC(=O)C2(F)CC2)C(C)(C)C)c(OCCCN2CCC(c3cc4nnc(-c5ccccc5O)cc4s3)CC2)c1 [Compound 76] : ≥ 0.1 µM
Cc1ncsc1-c1ccc(CNC(=O)[C@@H]2C[C@@H](O)CN2C(=O)[C@@H](NC(=O)CCCCC(=O)N2CC(c3sc4nnc(-c5ccccc5O)cc4c3C)C2)C(C)(C)C)cc1 [Compound 18] : ≥ 1 µM
Cc1ncsc1-c1ccc([C@H](C)NC(=O)[C@@H]2C[C@@H](O)CN2C(=O)[C@@H](c2cc(N3CCC(C(=O)N4CC(c5cc6cc(-c7ccccc7O)nnc6s5)C4)CC3)no2)C(C)C)cc1 [Compound 5] : ≥ 1 µM
Cc1ncsc1-c1ccc([C@H](C)NC(=O)[C@@H]2C[C@@H](O)CN2C(=O)[C@@H](c2cc(N3CCC(N4CC(c5sc6nnc(-c7ccccc7O)cc6c5C)C4)CC3)no2)C(C)C)cc1 [Compound 113] : ≥ 1 µM

// DC50 value for Cc1ncsc1-c1ccc(CNC(=O)[C@@H]2C[C@@H](O)CN2C(=O)[C@@H](NC(=O)CCCC(=O)N2CC(c3cc4cc(-c5ccccc5O)nnc4s3)C2)C(C)(C)C)cc1 [Compound 31] : ≥ 1 µM

// provenance: patent US20240376121A1
